# measured target: PAK4 (Homo sapiens, UniProt O96013)
# Sequence (O96013 whole entry, species assumed): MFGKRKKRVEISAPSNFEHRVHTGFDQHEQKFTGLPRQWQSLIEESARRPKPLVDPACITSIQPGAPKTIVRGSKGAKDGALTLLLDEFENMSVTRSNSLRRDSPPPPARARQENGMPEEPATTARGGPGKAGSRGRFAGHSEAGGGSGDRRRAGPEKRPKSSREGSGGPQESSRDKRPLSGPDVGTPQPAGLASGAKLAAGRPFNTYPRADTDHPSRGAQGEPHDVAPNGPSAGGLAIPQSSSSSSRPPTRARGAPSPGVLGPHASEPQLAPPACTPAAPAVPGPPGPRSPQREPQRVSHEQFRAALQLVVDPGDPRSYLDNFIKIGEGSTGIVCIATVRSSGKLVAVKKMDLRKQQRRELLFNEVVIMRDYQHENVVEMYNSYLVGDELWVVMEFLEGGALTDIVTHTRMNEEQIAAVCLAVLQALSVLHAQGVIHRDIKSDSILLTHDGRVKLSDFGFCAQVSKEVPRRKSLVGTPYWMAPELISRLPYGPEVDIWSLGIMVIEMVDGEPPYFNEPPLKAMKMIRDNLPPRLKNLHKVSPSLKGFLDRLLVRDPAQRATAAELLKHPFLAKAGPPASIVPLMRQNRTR
pIC50: −log10 of the molar value.
property name: pIC50

Look up pIC50 for this compound: `CCN1C(=O)N(c2c(F)c(OC)cc(OC)c2F)Cc2cnc3[nH]c(CN4CCOCC4)cc3c21`
< 5.00

====

# measured target: TGFBR1 (Homo sapiens, UniProt P36897)
# Sequence (P36897 34-503, species assumed): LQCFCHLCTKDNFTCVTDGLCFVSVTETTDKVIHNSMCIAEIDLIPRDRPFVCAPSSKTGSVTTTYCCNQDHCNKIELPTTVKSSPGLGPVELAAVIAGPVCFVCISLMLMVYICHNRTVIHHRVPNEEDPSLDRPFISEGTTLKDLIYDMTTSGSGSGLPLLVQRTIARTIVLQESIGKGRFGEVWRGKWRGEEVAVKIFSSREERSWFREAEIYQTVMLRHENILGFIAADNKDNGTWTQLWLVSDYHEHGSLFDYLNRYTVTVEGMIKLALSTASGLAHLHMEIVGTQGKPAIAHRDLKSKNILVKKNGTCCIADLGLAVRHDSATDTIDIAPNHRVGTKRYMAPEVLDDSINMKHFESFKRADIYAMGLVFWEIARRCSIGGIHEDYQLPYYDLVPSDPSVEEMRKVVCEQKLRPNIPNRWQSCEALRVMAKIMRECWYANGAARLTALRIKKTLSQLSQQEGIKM
pIC50: −log10 of the molar value.
property name: pIC50

Look up pIC50 for this compound: `CCN1C(=O)N(c2c(F)c(OC)cc(OC)c2F)Cc2cnc3[nH]c(CN4CCOCC4)cc3c21`
< 5.00

====

# measured target: BRAF (Homo sapiens)
# Sequence (P15056 whole entry, species assumed): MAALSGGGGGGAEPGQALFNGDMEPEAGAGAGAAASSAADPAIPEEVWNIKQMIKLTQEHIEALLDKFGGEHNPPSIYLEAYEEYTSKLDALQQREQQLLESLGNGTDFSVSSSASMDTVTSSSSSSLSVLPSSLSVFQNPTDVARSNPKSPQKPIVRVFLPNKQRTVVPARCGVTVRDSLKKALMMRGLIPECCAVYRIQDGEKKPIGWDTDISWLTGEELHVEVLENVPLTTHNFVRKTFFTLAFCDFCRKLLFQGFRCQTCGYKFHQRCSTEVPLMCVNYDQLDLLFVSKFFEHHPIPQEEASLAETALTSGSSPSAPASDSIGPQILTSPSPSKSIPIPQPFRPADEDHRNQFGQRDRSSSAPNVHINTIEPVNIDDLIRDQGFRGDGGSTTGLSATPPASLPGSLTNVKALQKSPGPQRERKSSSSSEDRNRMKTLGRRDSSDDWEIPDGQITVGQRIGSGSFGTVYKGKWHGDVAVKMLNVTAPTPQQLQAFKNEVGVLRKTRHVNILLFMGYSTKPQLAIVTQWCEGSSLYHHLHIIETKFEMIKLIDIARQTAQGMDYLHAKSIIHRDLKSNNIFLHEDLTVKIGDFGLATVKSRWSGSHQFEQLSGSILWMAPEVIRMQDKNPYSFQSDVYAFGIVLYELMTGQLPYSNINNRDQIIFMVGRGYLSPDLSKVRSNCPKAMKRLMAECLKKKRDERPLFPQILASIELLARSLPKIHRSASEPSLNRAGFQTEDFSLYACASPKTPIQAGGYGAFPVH
property name: IC50

Look up IC50 for this compound: `CCN1C(=O)N(c2c(F)c(OC)cc(OC)c2F)Cc2cnc3[nH]c(CN4CCOCC4)cc3c21`
> 10 µM

====

# measured target: STK4 (Homo sapiens)
# Sequence (Q13043 whole entry, species assumed): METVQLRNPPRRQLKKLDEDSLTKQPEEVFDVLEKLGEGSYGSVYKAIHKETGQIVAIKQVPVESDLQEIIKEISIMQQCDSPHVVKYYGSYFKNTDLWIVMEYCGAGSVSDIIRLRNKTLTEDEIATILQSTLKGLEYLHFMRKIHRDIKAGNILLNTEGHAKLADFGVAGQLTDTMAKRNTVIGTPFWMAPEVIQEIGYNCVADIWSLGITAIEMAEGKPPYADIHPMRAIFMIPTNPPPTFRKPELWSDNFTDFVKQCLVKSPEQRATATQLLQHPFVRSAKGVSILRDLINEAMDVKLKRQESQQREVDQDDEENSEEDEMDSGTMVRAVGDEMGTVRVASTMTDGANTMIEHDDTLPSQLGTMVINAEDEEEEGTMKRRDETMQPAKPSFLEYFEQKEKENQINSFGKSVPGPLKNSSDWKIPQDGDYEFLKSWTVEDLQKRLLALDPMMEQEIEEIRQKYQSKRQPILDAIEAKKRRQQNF
property name: IC50

Look up IC50 for this molecule: `CCN1C(=O)N(c2c(F)c(OC)cc(OC)c2F)Cc2cnc3[nH]c(CN4CCOCC4)cc3c21`
> 10 µM

====

Protein target, amino acids: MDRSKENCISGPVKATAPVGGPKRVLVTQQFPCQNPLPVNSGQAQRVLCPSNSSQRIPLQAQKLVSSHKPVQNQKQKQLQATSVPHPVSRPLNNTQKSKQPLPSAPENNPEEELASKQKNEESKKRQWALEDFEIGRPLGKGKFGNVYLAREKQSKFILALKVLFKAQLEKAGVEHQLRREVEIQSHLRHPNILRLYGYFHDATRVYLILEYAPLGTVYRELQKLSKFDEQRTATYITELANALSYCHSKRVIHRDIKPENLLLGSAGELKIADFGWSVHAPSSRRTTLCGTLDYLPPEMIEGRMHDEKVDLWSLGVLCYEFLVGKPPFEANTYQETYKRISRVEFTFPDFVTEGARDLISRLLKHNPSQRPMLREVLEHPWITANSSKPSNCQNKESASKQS
pIC50: −log10 of the molar value.
property name: pIC50

Look up pIC50 for this compound: `CCN1C(=O)N(c2c(F)c(OC)cc(OC)c2F)Cc2cnc3[nH]c(CN4CCOCC4)cc3c21`
< 5.00

====

# measured target: IKKA (Homo sapiens, UniProt O15111)
# Sequence (O15111 whole entry, species assumed): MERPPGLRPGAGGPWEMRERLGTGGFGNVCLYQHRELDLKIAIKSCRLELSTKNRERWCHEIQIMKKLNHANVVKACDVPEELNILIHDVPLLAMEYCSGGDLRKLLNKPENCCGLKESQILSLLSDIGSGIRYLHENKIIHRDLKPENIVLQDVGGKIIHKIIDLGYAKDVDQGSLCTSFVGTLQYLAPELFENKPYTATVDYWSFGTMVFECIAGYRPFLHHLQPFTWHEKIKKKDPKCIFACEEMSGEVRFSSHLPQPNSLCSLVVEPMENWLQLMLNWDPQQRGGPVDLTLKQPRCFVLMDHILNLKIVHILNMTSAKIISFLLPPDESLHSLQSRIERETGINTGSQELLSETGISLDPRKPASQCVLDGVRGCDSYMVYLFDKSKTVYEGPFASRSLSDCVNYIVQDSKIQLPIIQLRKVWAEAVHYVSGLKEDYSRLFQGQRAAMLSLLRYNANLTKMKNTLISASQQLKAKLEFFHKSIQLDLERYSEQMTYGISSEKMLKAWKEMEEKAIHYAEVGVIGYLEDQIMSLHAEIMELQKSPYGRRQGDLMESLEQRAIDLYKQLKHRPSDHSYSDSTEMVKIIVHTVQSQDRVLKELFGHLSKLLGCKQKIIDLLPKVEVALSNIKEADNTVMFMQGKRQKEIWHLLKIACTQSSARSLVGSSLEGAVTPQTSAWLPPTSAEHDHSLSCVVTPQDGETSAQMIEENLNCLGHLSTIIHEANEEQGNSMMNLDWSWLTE
property name: IC50

Look up IC50 for this compound: `CCN1C(=O)N(c2c(F)c(OC)cc(OC)c2F)Cc2cnc3[nH]c(CN4CCOCC4)cc3c21`
> 10 µM

====

# measured target: AKT1 (Homo sapiens, UniProt P31749)
# Sequence (P31749 whole entry, species assumed): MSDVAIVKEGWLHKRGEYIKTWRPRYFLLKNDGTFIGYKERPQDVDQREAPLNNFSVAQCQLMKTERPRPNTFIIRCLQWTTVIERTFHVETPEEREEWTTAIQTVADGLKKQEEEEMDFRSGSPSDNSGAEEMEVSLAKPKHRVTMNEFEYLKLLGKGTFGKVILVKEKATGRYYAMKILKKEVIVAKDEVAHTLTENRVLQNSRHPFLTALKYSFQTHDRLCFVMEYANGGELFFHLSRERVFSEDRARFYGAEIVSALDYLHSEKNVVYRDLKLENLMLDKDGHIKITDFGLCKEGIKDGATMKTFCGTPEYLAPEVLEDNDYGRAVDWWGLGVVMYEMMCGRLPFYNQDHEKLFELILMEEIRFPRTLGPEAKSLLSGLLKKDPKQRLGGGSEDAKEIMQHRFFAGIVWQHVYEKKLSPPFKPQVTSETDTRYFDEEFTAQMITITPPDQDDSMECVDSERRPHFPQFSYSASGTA
pIC50: −log10 of the molar value.
property name: pIC50

Form field: pIC50 recorded for `CCN1C(=O)N(c2c(F)c(OC)cc(OC)c2F)Cc2cnc3[nH]c(CN4CCOCC4)cc3c21` with AKT1 (Homo sapiens, UniProt P31749) (enter value)
< 5.00

====

# measured target: ZAP70 (Homo sapiens, UniProt P43403)
# Sequence (P43403 whole entry, species assumed): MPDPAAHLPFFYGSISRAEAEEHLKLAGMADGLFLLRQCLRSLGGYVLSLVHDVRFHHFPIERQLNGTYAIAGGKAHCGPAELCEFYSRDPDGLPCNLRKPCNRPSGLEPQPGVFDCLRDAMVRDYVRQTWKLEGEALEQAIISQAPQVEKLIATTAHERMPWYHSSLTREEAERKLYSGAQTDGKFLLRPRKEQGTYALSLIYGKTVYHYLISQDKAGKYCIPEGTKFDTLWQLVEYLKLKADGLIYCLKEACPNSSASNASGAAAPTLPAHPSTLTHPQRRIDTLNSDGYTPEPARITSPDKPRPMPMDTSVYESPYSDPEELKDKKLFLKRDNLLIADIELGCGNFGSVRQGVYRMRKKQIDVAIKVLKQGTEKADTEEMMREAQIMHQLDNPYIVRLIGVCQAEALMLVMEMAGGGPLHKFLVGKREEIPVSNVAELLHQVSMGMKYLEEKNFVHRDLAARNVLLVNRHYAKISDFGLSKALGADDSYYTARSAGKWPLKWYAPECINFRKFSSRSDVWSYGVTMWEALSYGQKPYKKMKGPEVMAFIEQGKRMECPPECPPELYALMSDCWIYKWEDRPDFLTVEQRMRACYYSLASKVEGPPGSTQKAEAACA
property name: IC50

Form field: IC50 recorded for `CCN1C(=O)N(c2c(F)c(OC)cc(OC)c2F)Cc2cnc3[nH]c(CN4CCOCC4)cc3c21` with ZAP70 (Homo sapiens, UniProt P43403) (enter value)
> 10 µM

====

# assay explanation: Pharmacokinetic analyses
# Assay type: in vivo, beagle dogs
# test settings: beagle, plasma; male dog, oral 2 mg/kg
property name: Cmax (µM)
Write the answer as a number in µM, unit excluded.

Look up Cmax for this compound: `CCN1C(=O)N(c2c(F)c(OC)cc(OC)c2F)Cc2cnc3[nH]c(CN4CCOCC4)cc3c21`
1.77
